- Tested on: H929 cells
- assay_explanation: CellTiter-Glo Protocol (Proliferation)
- Type: cell-based
- reported_conditions: Homo sapiens, NCI-H929, 24 hours, read-out: PROLIFERATION_CTG_H929 IC50
pIC50: −log10 of the molar value.
The following compounds are listed with their measured pIC50 values.
quantity_measured: pIC50

> print(dat)
                                   compound      target           val
1  Cc1cnc(NC(=O)[C@H]2CCC[C@@H](NC(=O)CC#N)C2)cc1-c1cccc2c1OCCN2  H929 cells  6.00 to 6.70
2  CC(=O)N[C@@H]1CCC[C@H](C(=O)Nc2cc(-c3cccc4c3CC(C)(C)O4)c(Cl)cn2)C1  H929 cells  6.00 to 6.70
3  CC(=O)N[C@@H]1CCC[C@H](C(=O)Nc2cc(-c3cccc4c3CC(C)(C)N4)c(Cl)cn2)C1  H929 cells  6.70 to 7.70
4  CC(=O)N[C@@H]1CCC[C@H](C(=O)Nc2cc(-c3cccc4c3CC(C)N4)c(Cl)cn2)C1 (some centres unmarked)  H929 cells  6.70 to 7.70
5  Cc1cnc(NC(=O)[C@H]2CCC[C@@H](NC(=O)CC#N)C2)cc1-c1cccc2c1OCC(C)(C)N2  H929 cells  6.00 to 6.70
6  CC(=O)N[C@@H]1CCC[C@H](C(=O)Nc2cc(-c3cccc4c3OCCN4)c(Cl)cn2)C1  H929 cells  6.70 to 7.70
7  CC(=O)N[C@@H]1CCC[C@H](C(=O)Nc2cc(-c3cccc4c3CCCN4)c(Cl)cn2)C1  H929 cells  6.70 to 7.70
8  CC(=O)N[C@@H]1CCC[C@H](C(=O)Nc2cc(-c3cccc4c3CCN4)c(Cl)cn2)C1  H929 cells  6.70 to 7.70

###

The following compounds are listed with their measured pIC50 values.
- target: CDK2/Cyclin A2 (Homo sapiens, UniProt P24941)
- assay_explanation: CDK2/CyclinA2 Enzymatic Activity Assay (TR-FRET)
- reported_conditions: ATP 1 mM, recombinant CDK2/Cyclin A2 1 nM, read-out: CDK2_A2 IC50
- Description: CDK2/CyclinA2 Enzymatic Activity Assay The inhibitory activity of compounds was evaluated in vitro using TR-FRET assay with white 384-well low volume microplate (Greiner Bio-One). CDK2/Cyclin A2 catalyzed phosphorylation of peptides in the presence and absence of compounds was measured and used in IC50 determination. […] The reaction signal was measured by Envision multimode plate reader (PerkinElmer, 2102-0010). […]
pIC50: −log10 of the molar value.
quantity_measured: pIC50

> print(dat)
                               smiles.input  quantity.measured           val
1  N#CCC(=O)N[C@@H]1CCC[C@H](C(=O)Nc2cc(-c3cc(F)cc4c3OCCN4)c(Cl)cn2)C1              pIC50  6.00 to 6.70
2  CC(=O)N[C@@H]1CCC[C@H](C(=O)Nc2cc(-c3cccc4c3CC(C)(C)N4)c(Cl)cn2)C1              pIC50        < 6.00
3  Cc1cnc(NC(=O)[C@H]2CCC[C@@H](NC(=O)CC#N)C2)cc1-c1cccc2c1OCC(C)(C)N2              pIC50        < 6.00
4  Cc1cnc(NC(=O)[C@H]2CCC[C@@H](NC(=O)CC#N)C2)cc1-c1cccc2c1OCCN2              pIC50        < 6.00
